system: HL-60; assay: NCI tumour cell line growth inhibition, 48 h
The source made the active and inactive calls. Cut-off read from the data, not from the text of the source: active = GI50 up to about 1.1 µM and inactive = higher.
Returns: one label drawn from TRUE (active), FALSE (inactive)

The examples below pair each entry with its known result.
COc1cc2c(c(OC)c1OC)[C@@H]1CCCCC[C@@H]1CCC2=O; FALSE
CCOC(=O)c1ccc(C(=O)/C(C#N)=C2\CCCN2)n1C; FALSE
CCCCCCCCCCCOc1ccc(C(=O)C(=O)c2ccc(OCCCCCCCCCCC)c(OCCCCCCCCCCC)c2)cc1OCCCCCCCCCCC; FALSE

Status in this test for "CNC(=O)N(C)C(=O)c1ccccc1C(=O)N(C)C(=O)NC" ? FALSE

Status in this test for COC(=O)c1ccccc1C1CN=NC12Cc1cc(C)c(C)cc1C2=O (stereo unspecified) ? FALSE

Status in this test for "CN(C)c1ccc(/C=C/C(=O)N[C@@H]2C(=O)N3[C@@H]2SC(C)(C)[C@@H]3C(=O)O)cc1" ? FALSE
